Entries below carry reported Kd on Keap1 (Kelch domain = aa321–aa609) (Homo sapiens).
Sequence (Q14145 321-609): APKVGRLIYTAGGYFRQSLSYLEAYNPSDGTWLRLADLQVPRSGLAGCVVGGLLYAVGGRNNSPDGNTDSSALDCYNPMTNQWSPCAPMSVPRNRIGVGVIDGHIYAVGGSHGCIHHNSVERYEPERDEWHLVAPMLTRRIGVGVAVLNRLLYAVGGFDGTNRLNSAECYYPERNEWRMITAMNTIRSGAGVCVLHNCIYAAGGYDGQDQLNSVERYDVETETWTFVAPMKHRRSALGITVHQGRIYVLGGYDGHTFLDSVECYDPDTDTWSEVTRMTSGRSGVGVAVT

SMILES_REPRESENTATION	TARGET	Kd
CN(C)C(=O)[C@H]1CSCc2ccccc2C(=O)OC[C@@H](NC(=O)[C@@H]2CCCN2C(=O)Cc2cccnc2)C(=O)N1	Keap1 (Kelch domain = aa321–aa609) (Homo sapiens)	51 µM
CN(C)C(=O)[C@H]1CSCc2ccccc2C(=O)OC[C@@H](NC(=O)[C@@H]2CCCN2C(=O)c2ccccc2-n2cnnn2)C(=O)N1	Keap1 (Kelch domain = aa321–aa609) (Homo sapiens)	13 µM
CN(C)C(=O)[C@H]1CSCc2ccccc2C(=O)OC[C@@H](NC(=O)[C@@H]2CCCN2C(=O)c2cccn(C)c2=O)C(=O)N1	Keap1 (Kelch domain = aa321–aa609) (Homo sapiens)	14.7 µM
CN(C)C(=O)[C@H]1CSCc2ccccc2C(=O)OC[C@@H](NC(=O)[C@@H]2CCCN2C(=O)Cc2cc3ccccc3s2)C(=O)N1	Keap1 (Kelch domain = aa321–aa609) (Homo sapiens)	35.4 µM
COC(=O)CCC(=O)N1CCC[C@H]1C(=O)N[C@@H]1COC(=O)c2ccccc2CSC[C@H](C(=O)N(C)C)NC1=O	Keap1 (Kelch domain = aa321–aa609) (Homo sapiens)	17.1 µM
CC(=O)N(CC(=O)N1CCC[C@H]1C(=O)N[C@@H]1COC(=O)c2ccccc2CSC[C@H](C(=O)N(C)C)NC1=O)c1ccccc1	Keap1 (Kelch domain = aa321–aa609) (Homo sapiens)	63.6 µM
CN(C)C(=O)[C@H]1CSCc2ccccc2C(=O)OC[C@@H](NC(=O)[C@@H]2CCCN2C(=O)c2ccccc2NS(C)(=O)=O)C(=O)N1	Keap1 (Kelch domain = aa321–aa609) (Homo sapiens)	15.3 µM

----------
compounds and their reported logD
Assay: physchem
Conditions: pH 7.4
MEASUREMENT_LABEL: logD

SMILES_REPRESENTATION	RECORDED_RESULT
CC(=O)N1CCC[C@H]1C(=O)N[C@@H]1COC(=O)c2cccc(-c3ccc(C(=O)O)cc3)c2CSC[C@H](C(=O)N(C)C)NC1=O	< -1.5
CC(=O)N1CCC[C@H]1C(=O)N[C@@H]1COC(=O)c2cccc(-c3cc(F)c(C(=O)O)c(F)c3)c2CSC[C@H](C(=O)N(C)C)NC1=O	< -0.8
CC(=O)N1CCC[C@H]1C(=O)N[C@@H]1COC(=O)c2cccc(-c3cc(C)c(C(=O)O)c(C)c3)c2CSC[C@H](C(=O)N(C)C)NC1=O	< -1.4

----------
Test: physchem
Details: pH 7.4
molecules and their reported solubility

SMILES_REPRESENTATION	solubility
CC(=O)N1CCC[C@H]1C(=O)N[C@@H]1COC(=O)c2cccc(-c3cc(C)c(C(=O)O)c(C)c3)c2CSC[C@H](C(=O)N(C)C)NC1=O	965 µM
CC(=O)N1CCC[C@H]1C(=O)N[C@@H]1COC(=O)c2cccc(-c3cc(F)c(C(=O)O)c(F)c3)c2CSC[C@H](C(=O)N(C)C)NC1=O	> 1000 µM
CC(=O)N1CCC[C@H]1C(=O)N[C@@H]1COC(=O)c2cccc(-c3ccc(C(=O)O)cc3)c2CSC[C@H](C(=O)N(C)C)NC1=O	> 850 µM
